Entry source: ChEMBL document CHEMBL1157539

- Tested on: Plasmodium falciparum
- Protocol: GSK_TCMDC: Inhibition of Plasmodium falciparum 3D7 in whole red blood cells, using parasite LDH activity as an index of growth. Test compounds present at 2uM
- Type: functional
Measured Inhibition of individual entries
I only need the number, in %, no unit after it.

// known answers, use as guide
O=C(Nc1ccc(-c2cccc(-c3nc4ccccc4[nH]3)c2)cc1)c1cnn2cccnc12    99
Cl.O=C(N[C@@H](Cc1ccccc1)[C@H](O)CNC1CCCc2ccccc21)c1cc(C2CCCC2)cc(N2CCCC2=O)c1 (some centres not stated)    97
CCOc1ccc(C(=O)Nc2cc(Br)c3c(c2)CNCC3)cc1Cl.Cl    92
Cl.O=C(C=Cc1ccc(F)cc1)NC1CCC(CCN2CCc3ccc(-c4cnccn4)cc3CC2)CC1 (configuration not stated)    99

Inhibition lookup needed for `O=c1cc(NCCCNCc2cccc(SC(F)(F)F)c2)[nH]c2ccccc12` , thanks.
100

Could you tell me which Inhibition is on file for `COc1ccc2c(c1C1CCN(CCCCNC(=O)c3ccc(NC(=O)c4ccc(Cl)cc4)cc3)CC1)CCCC2` ?
100

Requested field: Inhibition. Item: `c1cncc(CN2CCCN(c3ccc4c(c3)CCN(Cc3ccc(-c5ncc[nH]5)cc3)CC4)CC2)c1`
99

Any idea what its Inhibition is? The compound is `CN(C)CCNc1nccc(N2CCc3ncnc(Nc4ccc(OCc5cccc(F)c5)c(Cl)c4)c3C2)n1`
100

Query: Inhibition; subject: `Cl.Oc1ccc2ccccc2c1CNCCC1CCCCC1`
99

Please report the recorded Inhibition for `COc1ccc(-c2cccc(CNCc3ccc(F)cc3)c2)cc1S(=O)(=O)NCCN1CCCC1.O=C(O)C(F)(F)F` .
100

----------
- Test system: Plasmodium falciparum
- Protocol: GSK_TCMDC: Inhibition of Plasmodium falciparum Dd2 in whole red blood cells, using parasite LDH activity as an index of growth. Test compounds present at 2uM
- Format: functional
Reported Inhibition values for a set of molecules
Give the value in % but do not write % after it.

Example cases with answers are listed next.
COc1ccc(NC(=O)/C=C/c2ccc(-c3ccc(-c4noc(C)n4)cc3)cc2)cc1OCCN(C)C.O=C(O)C(=O)O    31
O=C(Cc1c[nH]cn1)Nc1ccc(-c2ccc(-c3nc4cc(C(F)(F)F)ccc4[nH]3)s2)cc1    99
COc1ccccc1N1CCN(Cc2c(O)ccc3cc(Br)ccc23)CC1    75

Entry `Cl.N=C(NC1CC1)c1ccc2[nH]c(CCCCCc3nc4cc(C(=N)NC5CC5)ccc4[nH]3)nc2c1` : reported Inhibition = ?
72

# Inhibition lookup, item `CN1CCCN(Cc2cccc(-c3cccc(NC(=O)c4ccc(C#N)cc4)c3)c2)CC1.O=C(O)C(F)(F)F`
4

GET /values?readout=Inhibition&item= `CC(C)C(=O)Nc1c(F)cc(F)cc1CCc1ccc(O)cc1`
91

Entry `CCN(CC)CCN(CCCc1ccc(-c2ccc(C(F)(F)F)cc2)cc1)C(=O)Cn1c(CCc2cccc(F)c2F)nc(=O)c2ccccc21.O=C(O)C(O)C(O)C(=O)O` has what Inhibition?
49

Query (molecule): `O=C(Nc1ccccc1)N(Cc1cccc(-c2ccc(CNCc3ccc4c(c3)OCO4)cc2)c1)C1CCN(Cc2ccccc2)CC1.O=C(O)C(F)(F)F` ; field requested: Inhibition
82

Looking for the measured Inhibition of Cl.N=C(N)c1ccc(C=CC(=O)NCC(O)CNC(=O)C=Cc2ccc(C(=N)N)cc2)cc1 (stereo not drawn) , can you help?
80

----------
- Test system: Plasmodium falciparum
- Protocol: GSK_TCMDC: Inhibition of Plasmodium falciparum 3D7 in whole red blood cells, using parasite LDH activity as an index of growth. Test compounds present at 2uM
- Format: functional
Assay metric: Inhibition (%)
Numeric only. Scale: %

COc1ccc(CNC2CCN(C)CC2)cc1-c1ccc(S(=O)(=O)NCCc2ccccn2)s1.O=C(O)C(F)(F)F    100
Cc1cccc2nc(-c3ccc(-c4cccc(CNCCCNS(C)(=O)=O)c4)cc3)[nH]c12.O=C(O)C(F)(F)F    99

Write down the reported Inhibition of `CN1CCN(c2ccnc3ccc(NC(=O)Nc4c(Cl)cccc4Cl)cc23)CC1` , test system: Plasmodium falciparum.
96

Identify the measured Inhibition of `Cc1cnc(C(=O)Nc2ccc(-c3cccc(-c4nc5ccccc5[nH]4)c3)cc2)cn1` for Plasmodium falciparum.
93

Which Inhibition is reported with Plasmodium falciparum for this entry: Cc1cc(CNCC2CCC(CNCCCc3ccccc3)CC2)ccc1O (centres undefined) ?
100

State its Inhibition on Plasmodium falciparum: `CC[C@H](N/C(=N\c1cccc(Cl)c1Cl)Nc1ccc(C#N)cc1O)c1ccccc1`
91

Report Inhibition for `Cn1cncc1CCCN(Cc1ccc(-c2ccc(C(F)(F)F)cc2)cc1)C(=O)Cn1c(CCc2cccc(F)c2F)cc(=O)c2cccnc21` tested on Plasmodium falciparum.
85

Quick check: Inhibition on Plasmodium falciparum, item `O=C(O)C(F)(F)F.OC1(Cc2ccccc2)CCN(Cc2cccc(-c3c[nH]c4nc(NC5CCCC5)ncc34)c2)CC1` ?
96

Request - read-out Inhibition | tested on Plasmodium falciparum | molecule Cc1cccc(N2CCN(C3CCC(NC(=O)c4cc5ccccc5[nH]4)CC3)CC2)c1C (centres undefined)
100

----------
- Tested on: Plasmodium falciparum
- Protocol: GSK_TCMDC: Inhibition of Plasmodium falciparum 3D7 in whole red blood cells, using parasite LDH activity as an index of growth. Test compounds present at 2uM
- Assay type: functional
// reported Inhibition per item
Number in %, nothing else.

CCOc1ccc2c(c1)N(C(=O)C=Cc1ccccc1)C(C)(C)c1ssc(=S)c1-2    83
CCN(CC)c1ccc2nc(N)nc(N)c2c1.Cl    93

Which Inhibition value is on record for `Cc1cc2nc(N/C(N)=N/C(=O)NC3CCCCC3)nc(C)c2cc1C` ?
94

----------
- Tested on: Plasmodium falciparum
- Protocol: GSK_TCMDC: Inhibition of Plasmodium falciparum 3D7 in whole red blood cells, using parasite LDH activity as an index of growth. Test compounds present at 2uM
- Assay type: functional
Assay metric: Inhibition (%)
Supply the numeric figure in %, leaving out any unit text.

The cases that follow already have their Inhibition on record.
CCN(CCCN1CCCCC1)c1cc(C)nc(Nc2ccc(C)c(Cl)c2)n1.O=C(O)C(F)(F)F    100
O=C(O)C(F)(F)F.OCC1CCN(Cc2ccc(-c3ccc(-c4nc5cc(C(F)(F)F)ccc5[nH]4)cc3)cc2)CC1    100
CCCC(CNCc1ccccc1)CNc1cc(=O)c2ccccc2[nH]1 (stereo not given)    86
CCCCc1cc(O)c2c(c1)OC(C)(C)C=C2C1=CCN(Cc2ccccc2)CC1    98
S=C(NN=Cc1ccccn1)NC1CC2C=CC1C2 (stereo not given)    99
COc1ccc(CN2CCC(CNCCc3ccccc3Oc3ccccc3)CC2)cc1.O=C(O)C(F)(F)F    85
Cc1cc(N(C)C)nc(Nc2ccc(NC(=O)C3CCCCC3)cc2)n1    100
CC(C)N1CCN(C(CN2CCN(CCCOc3cccc(-c4ccccc4)c3)CC2)c2ccc(F)cc2)CC1.Cl (stereo not given)    100

Any idea what its Inhibition is? The compound is `O=C(c1ccc(-c2ccccn2)s1)N1CCc2cc3nccc(N4CCN5CCC[C@H]5C4)c3cc21`
96

// lookup Inhibition for `CC(=O)OCCN1C(=O)c2ccc3c4c(ccc(c24)C1=O)C(=O)N(CCOC(C)=O)C3=O`
94

Sample `COc1ccc2ncc(F)c(CCN3CC[C@@H](CNCc4ccc5c(c4C)OCCO5)C3)c2n1.Cl` — what was its Inhibition?
94

What does the data say about its Inhibition? Entry: COc1ccccc1C1CC(c2ccc(C)cc2)=NN1C(=O)c1ccccc1 (stereo not given)
98

Requested field: Inhibition. Item: `COc1c(CN2CCOCC2)cccc1-c1cc2c(-c3ccc(C(=O)O)c(C(C)C)c3)ccnc2[nH]1.O=C(O)C(F)(F)F`
98

Reported Inhibition for CN1CCCC1CCNc1ncc2c(-c3ccc(NC(=O)Nc4cc(C(F)(F)F)ccc4F)c(F)c3)nn(C)c2n1.O=C(O)C(F)(F)F (stereo not given) : what is it?
99

Requested field: Inhibition. Item: `Cc1cc(N2CC=CCC2)nc(NC(=N)Nc2ccc(Br)cc2)n1`
98

Could you tell me which Inhibition is on file for `COc1cc(Cc2cnc(N)nc2N)ccc1OCc1ccc(-c2ccccc2C#N)cc1` ?
93

Returns the measured Inhibition for the input compound. Input: `OCc1c(Cl)cc(Cl)cc1CNCCCNc1nc2ccccc2[nH]1`
100

I'd like to know its Inhibition. The compound in question is `Cc1cc(NCc2ccccc2)nc2cc(O)ccc12`
98

Tell me the measured Inhibition of `CCOc1ccc(CCC(=O)O)cc1OCC` , please.
94

Data request, read-out Inhibition, for `Fc1ccccc1C=NN=c1cc[nH]c2ccc(C(F)(F)F)cc12`
100
